- Assay System: T1, cynomolgus monkey IL-33 expressed with a C-terminal hexahistidine tag (cynomolgus monkey)
- T1 construct: also called MfIL-33-6His; Mf-IL-33-6His
- T1 chain: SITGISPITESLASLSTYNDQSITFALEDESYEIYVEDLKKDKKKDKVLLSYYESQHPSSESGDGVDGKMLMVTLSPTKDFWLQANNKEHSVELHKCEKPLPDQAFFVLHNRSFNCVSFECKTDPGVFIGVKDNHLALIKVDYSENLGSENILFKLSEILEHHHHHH
- Assay: SPR 37C pH7.4, mAb captured
Observable: log10 t½ (log10 of the value in min)
Reminder: these figures are log10 of reported t½, in min before transformation.

Could you tell me which log10 t½ is on file for H4H9670P (antibody, V domains shown, Human IgG4 Fc (H4H)) VH: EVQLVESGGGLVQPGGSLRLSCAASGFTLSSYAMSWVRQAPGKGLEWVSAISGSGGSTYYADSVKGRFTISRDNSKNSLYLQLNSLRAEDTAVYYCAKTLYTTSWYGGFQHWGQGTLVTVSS VL: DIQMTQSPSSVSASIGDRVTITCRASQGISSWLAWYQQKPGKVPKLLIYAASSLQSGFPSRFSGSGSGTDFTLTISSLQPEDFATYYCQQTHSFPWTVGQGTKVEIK ? 0.36

Try this binder next: H4H9659P (antibody, human IgG4, V domains shown, Human IgG4 Fc (H4H)) VH: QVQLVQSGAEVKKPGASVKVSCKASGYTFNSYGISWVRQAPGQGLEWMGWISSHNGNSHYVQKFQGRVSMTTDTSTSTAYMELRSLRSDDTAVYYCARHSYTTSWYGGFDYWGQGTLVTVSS VL: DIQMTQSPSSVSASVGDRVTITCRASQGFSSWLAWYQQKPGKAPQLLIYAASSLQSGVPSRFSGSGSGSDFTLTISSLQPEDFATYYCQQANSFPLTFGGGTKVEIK 0.78

Try this binder next: H4H9633P (antibody, human IgG4, V domains shown, Human IgG4 Fc (H4H)) VH: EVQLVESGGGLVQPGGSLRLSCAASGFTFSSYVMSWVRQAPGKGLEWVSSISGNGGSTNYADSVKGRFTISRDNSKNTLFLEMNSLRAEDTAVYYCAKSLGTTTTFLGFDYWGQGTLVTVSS VL: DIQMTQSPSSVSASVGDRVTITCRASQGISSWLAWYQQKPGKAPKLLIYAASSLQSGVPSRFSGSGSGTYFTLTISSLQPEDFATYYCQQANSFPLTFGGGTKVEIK -0.30

Try this binder next: H1M9568N (antibody, mouse IgG1, V domains shown, Human variable domains, mouse IgG1 Fc (H1M)) VH: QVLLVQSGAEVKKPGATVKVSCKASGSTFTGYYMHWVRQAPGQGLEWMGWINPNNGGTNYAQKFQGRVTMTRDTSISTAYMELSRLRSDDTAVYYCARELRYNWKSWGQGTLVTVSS VL: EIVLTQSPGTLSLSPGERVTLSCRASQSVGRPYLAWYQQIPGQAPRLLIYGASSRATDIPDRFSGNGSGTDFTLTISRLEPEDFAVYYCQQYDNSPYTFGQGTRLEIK 0.85

Try this binder next: H4H9666P (antibody, human IgG4, V domains shown, Human IgG4 Fc (H4H)) VH: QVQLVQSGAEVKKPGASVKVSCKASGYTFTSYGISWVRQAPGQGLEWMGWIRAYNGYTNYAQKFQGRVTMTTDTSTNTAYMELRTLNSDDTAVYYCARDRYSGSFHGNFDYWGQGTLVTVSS VL: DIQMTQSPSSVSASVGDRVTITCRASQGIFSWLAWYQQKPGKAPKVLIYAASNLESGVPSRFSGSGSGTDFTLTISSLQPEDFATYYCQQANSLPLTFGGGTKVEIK -0.10

Try this binder next: H4H9660P (antibody, human IgG4, V domains shown, Human IgG4 Fc (H4H)) VH: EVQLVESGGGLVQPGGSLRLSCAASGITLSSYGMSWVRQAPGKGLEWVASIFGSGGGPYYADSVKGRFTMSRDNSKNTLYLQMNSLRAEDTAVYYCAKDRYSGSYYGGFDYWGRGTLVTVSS VL: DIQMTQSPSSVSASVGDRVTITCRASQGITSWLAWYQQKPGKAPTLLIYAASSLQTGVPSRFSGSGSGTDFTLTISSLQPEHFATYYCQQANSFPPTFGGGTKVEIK 0.41

Try this binder next: H4H9676P (antibody, human IgG4, V domains shown, Human IgG4 Fc (H4H)) VH: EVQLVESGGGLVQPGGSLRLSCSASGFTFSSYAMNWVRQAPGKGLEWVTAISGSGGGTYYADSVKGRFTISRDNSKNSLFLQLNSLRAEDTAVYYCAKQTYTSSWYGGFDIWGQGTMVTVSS VL: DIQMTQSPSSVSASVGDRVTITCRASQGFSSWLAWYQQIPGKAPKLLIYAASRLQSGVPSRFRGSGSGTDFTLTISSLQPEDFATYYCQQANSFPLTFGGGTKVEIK -0.10

Try this binder next: H4H9667P (antibody, human IgG4, V domains shown, Human IgG4 Fc (H4H)) VH: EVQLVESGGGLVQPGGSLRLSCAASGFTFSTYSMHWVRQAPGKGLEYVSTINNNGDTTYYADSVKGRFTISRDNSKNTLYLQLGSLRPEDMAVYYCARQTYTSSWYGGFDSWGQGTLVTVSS VL: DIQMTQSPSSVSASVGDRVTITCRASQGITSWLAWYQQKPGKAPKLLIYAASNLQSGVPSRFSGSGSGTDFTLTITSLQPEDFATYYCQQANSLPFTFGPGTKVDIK 0.60

Try this binder next: H4H9663P (antibody, human IgG4, V domains shown, Human IgG4 Fc (H4H)) VH: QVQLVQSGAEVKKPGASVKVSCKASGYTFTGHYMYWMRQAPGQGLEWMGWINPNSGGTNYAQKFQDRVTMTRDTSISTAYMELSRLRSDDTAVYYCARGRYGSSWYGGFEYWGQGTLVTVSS VL: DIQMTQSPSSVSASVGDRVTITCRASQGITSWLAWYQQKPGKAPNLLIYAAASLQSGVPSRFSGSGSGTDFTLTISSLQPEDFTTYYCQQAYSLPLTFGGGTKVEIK 0.51
